molecular target: C-C chemokine receptor type 5 (CCR5) (Homo sapiens, UniProt P51681 P51681:1-352); experiment: cell_activity; HIV-1 R5 JR-FL p24 day 3; day 5 58.51 ± 11.22, day 7 17.09 ± 5.90; X4 NL4-3 not converged; settings: tags: endogenous on in vivo generated human CD4+ T cells
Sequence (P51681 whole entry, one chain of several): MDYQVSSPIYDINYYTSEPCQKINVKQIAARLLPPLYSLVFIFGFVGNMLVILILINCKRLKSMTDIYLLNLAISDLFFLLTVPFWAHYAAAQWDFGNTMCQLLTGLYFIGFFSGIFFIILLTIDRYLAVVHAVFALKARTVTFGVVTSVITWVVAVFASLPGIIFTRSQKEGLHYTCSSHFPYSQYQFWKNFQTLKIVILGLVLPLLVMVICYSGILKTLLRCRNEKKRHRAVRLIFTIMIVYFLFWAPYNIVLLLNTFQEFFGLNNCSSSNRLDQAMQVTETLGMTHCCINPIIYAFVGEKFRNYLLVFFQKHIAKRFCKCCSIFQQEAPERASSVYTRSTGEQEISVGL
OBSERVATION TYPE: pIC50
// returns pIC50 (minus log10 of molar concentration), number only

Incoming: Please report the recorded pIC50 for G-3 aptamer (ssRNA, 2'-F pyrimidines (2'-F-C, 2'-F-U)) RNA: GGGAGGACGAUGCGGGCCUUCGUUUGUUUCGUCCACAGACGACUCGCCCGA .
Outgoing: 7.32
